# Read-out: Human Leukocyte Antigen - DR isotype (HLADR), HLA-DRA (gene 3122)
# Method Summary: BSK_3C_HLADR: BioMAP Diversity Plus: 3C Assay for Human Leukocyte Antigen - DR isotype (HLADR) Biomarker Activity (AID 2283019);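 as to Outcome: ELISA of cell-surface HLA-DR on HUVEC 24 h after dosing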
# Test Parameters: primary human endothelial cells (HUVEC); actives raise or lower the signal
Activity calls are given as the source filed them. The calls were made as follows: active = hit-call score of the fitted dose curve at least 0.9, where 1 is the maximum; inactive = score below 0.9.
Outcome (select one): active, inactive

The following molecules have reported results that may help.
Prompt: # fetch the recorded call for "C[N+]1(C)CCCCC1" here
Response: inactive

Prompt: Same question, "CC(C)N(C(=O)SCC(Cl)=C(Cl)Cl)C(C)C" this time
Response: active

Prompt: Same question, "O=C(O)c1cc(Oc2ccc(C(F)(F)F)cc2Cl)ccc1[N+](=O)[O-]" this time
Response: inactive

Prompt: Same question, "CCCCN(CC)c1c([N+](=O)[O-])cc(C(F)(F)F)cc1[N+](=O)[O-]" this time
Response: active

Prompt: Same question, "CSC1=N[C@@](C)(c2ccccc2)C(=O)N1Nc1ccccc1" this time
Response: active

Prompt: Same question, COP(=O)(OC)C(O)C(Cl)(Cl)Cl (stereo unspecified) this time
Response: inactive

Prompt: Same question, "COc1cc(OC)nc(Sc2cccc(Cl)c2C(=O)O)n1" this time
Response: inactive

Prompt: Same question, "CCCOCC(=Nc1ccc(Cl)cc1C(F)(F)F)n1ccnc1" this time
Response: active

Prompt: Same question, "CC(C)[C@H](C(=O)O[C@H](C#N)c1cccc(Oc2ccccc2)c1)c1ccc(Cl)cc1" this time
Response: active

Prompt: Same question, "CN(C)NC(=O)CCC(=O)O" this time
Response: inactive

Further cases:
Prompt: # fetch the recorded call for "CC[C@H](C)[C@H]1O[C@]2(C=C[C@@H]1C)C[C@@H]1C[C@@H](C/C=C(\C)[C@@H](O[C@H]3C[C@H](OC)[C@@H](O[C@H]4C[C@H](OC)[C@@H](NC)[C@H](C)O4)[C@H](C)O3)[C@@H](C)/C=C/C=C3\CO[C@@H]4[C@H](O)C(C)=C[C@@H](C(=O)O1)[C@]34O)O2" here
Response: active

Prompt: Same question, COP(=O)(OC)OC(Br)C(Cl)(Cl)Br (stereo unspecified) this time
Response: active

Prompt: Same question, CCOP(=O)(NC(C)C)Oc1ccc(SC)c(C)c1 (stereo unspecified) this time
Response: inactive

Prompt: Same question, "Cc1ccn2nc(S(=O)(=O)Nc3c(F)cccc3F)nc2n1" this time
Response: inactive

Prompt: Same question, "CCCSP(=O)(OCC)SCCC" this time
Response: inactive

Prompt: Same question, "C#CC(C)(C)NC(=O)c1cc(Cl)cc(Cl)c1" this time
Response: active

Prompt: Same question, "S=C1NCCN1" this time
Response: inactive

Prompt: Same question, "CN(C)[C@@H]1C(=O)C(C(N)=O)=C(O)[C@@]2(O)C(=O)C3=C(O)c4c(O)cccc4[C@@](C)(O)[C@H]3[C@H](O)[C@@H]12" this time
Response: inactive

Prompt: Same question, CC(COc1ccc(Oc2ccccc2)cc1)Oc1ccccn1 (stereo unspecified) this time
Response: active

Prompt: Same question, CCOP(=S)(OCC)OC(Cl)C(Cl)(Cl)Cl (stereo unspecified) this time
Response: active
